- test_parameters: in 1,4-dioxane, 283.15 K
measured_property: solubility (mole fraction)
Please state the value as a number alone, without comment.

Give me measured solubility (mole fraction), please, for this compound: O=[N+]([O-])N(CCO)CCO.O=[N+]([O-])O.O=[N+]([O-])O
0.191

###

- test_parameters: in ethanol, 313.15 K
measured_property: solubility (mole fraction)

Give me measured solubility (mole fraction), please, for this molecule: O=[N+]([O-])N(CCO)CCO.O=[N+]([O-])O.O=[N+]([O-])O
0.0139

###

- test_parameters: in dichloromethane, 298.15 K
measured_property: solubility (mole fraction)
Please state the value as a number alone, without comment.

Give me measured solubility (mole fraction), please, for this molecule: O=[N+]([O-])N(CCO)CCO.O=[N+]([O-])O.O=[N+]([O-])O
0.205

Cited source: BigSolDB 2.1
